Quick reference for Mean IC80, pSV neutralization among some binders
measured_target: SARS-CoV-2 S on pseudovirions (Wuhan Hu-1 / IL1/2020, last 18 amino acids removed) (SARS-CoV-2, UniProt P0DTC2 14-1273)
assay_notes: cell-based or functional assay

- binder: "COV_2018 (antibody, V domains shown) VH: QVQLVQSGAEVKKPGSSVKVSCKASGGTSSSYAISWVRQAPGQGLEWIGGIIPIFDTTKYAQKFQGRVTITADESTNTAYMEVSSLRSEDTAVYYCAKVADRVGASTGELDYWGQGTLVTVSS VL: EVVLTQSPATLSLSPGERGTLSCRASQSISNYLAWYQQKPGQAPRLLIYNASNRATGVPARFSGSGSGTDFTLTISSLEPEDFAVYYCQQRSNWPPWTFGQGTKVEIK"
  relational_operator: "="
  Mean IC80, pSV neutralization (µg/ml): 1.27
- binder: "COV_3033 (antibody, V domains shown) VH: EVQMVESGGGFVQPGQSPRLSCLVSGLNFADYAFCWVRQAPGKGPEWIGFISSKLHGGTTHYAASVEGRFIISRDDSKNVVYLQMDNLKAEDSAVYYCTRDSYGYFPEYGFGVWGQGTLVTVSS VL: EVVLTQTPLSLSVTPGQPASISCRSSQSLVHSDGRTYLYWFLQKPGQPPQPLIYDISSRFSGVPYRFTGSGSGTYFTLRISRVEADDVGVYYCMHSIQLPRAFGQGTKVEIK"
  relational_operator: "≥"
  Mean IC80, pSV neutralization (µg/ml): 25
- binder: "COV_2173 (antibody, V domains shown, human IgG1) VH: QVQLQESGPGLVKPSETLSLTCSVSGDSISSSDYSWGWIRQPPGKGLEWIGTIYYIKNTYYNPSLRSRVTLSVDTSKNLFSLKLSSVTAADTAVYYCARERPPFDVVVVPAARPYNWFDPWGLGTLVIVSS VL: QSVLMQPPSVSGAPGQRVTISCTGSSSNIGAGYDVHWYQQLPGTAPKLLIYGNNNRPSGVPDRFSGSKSGTSASLAITGLQADDEADYYCQSYDSSLSGSKVFGGGTKLTVL"
  relational_operator: "="
  Mean IC80, pSV neutralization (µg/ml): 0.01
